Reference source for all entries: the RNAGym collection of RNA variant scans (doi:10.7554/elife.80360)

B1: Hairpin Ribozyme (parent)
chain: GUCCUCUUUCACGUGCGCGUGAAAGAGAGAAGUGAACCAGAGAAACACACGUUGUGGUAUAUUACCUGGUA

Variants of: B1
MEASUREMENT NOTES: self-cleavage, relative activity (ratio to wild type); higher = more cleavage; co-transcriptional
Each entry gets N if its self-cleavage stays under 0.6, and Y if its self-cleavage is 0.6 or above.

Use these answered entries as a reference point.
*Q* Quick check: does GUCCUCUCUCACGUGCGCGUGAAAGAGAGAAGUGAACCAGAGAACCACACGUUGUGGUAUAUUACCUGGUA [U8C A45C] have self-cleavage greater than or equal to 0.6?
*A* N

*Q* Quick check: does GUCCUCUUUCACGUUCGCGUGAAAGAGAGAAGUGAACCAGAGAAAUACACGUUGUGGUAUAUUACCUGGUA [G15U C46U] have self-cleavage greater than or equal to 0.6?
*A* N

*Q* Quick check: does GUCCUCCUUCACGUGCGCGUCAAAGAGAGAAGUGAACCAGAGAAACACACGUUGUGGUAUAUUACCUGGUA [U7C G21C] have self-cleavage greater than or equal to 0.6?
*A* Y

*Q* Quick check: does GUCCUCUUUCACGUGCGCGUGAAAGAGAGAAGUGAAGCAGAGAAACACACGUUGUGGUAUACUACCUGGUA [C37G U62C] have self-cleavage greater than or equal to 0.6?
*A* N

*Q* Quick check: does GUCCUCUUUCACGUGCGCGUGAAAGAGAGAAGUGAACCAGAGAAUCACACGUUGUGGUAUAUUAGCUGGUA [A45U C65G] have self-cleavage greater than or equal to 0.6?
*A* N

Next:
*Q* Quick check: does GUCCUCUUUAACGUGCGCGUGAAAGAGAGAAGUGAACCAGAAAAACACACGUUGUGGUAUAUUACCUGGUA [C10A G42A] have self-cleavage greater than or equal to 0.6?
*A* N

*Q* Quick check: does GUCCUCUUUCACGUGCGCGCGAAAGAGAGAGGUGAACCAGAGAAACACACGUUGUGGUAUAUUACCUGGUA [U20C A31G] have self-cleavage greater than or equal to 0.6?
*A* N

*Q* Quick check: does GUCCUCUUUCACGUGCGCGUGAAAGAGAGAAGUGAACCAGAGAAACACACGUUGUGGUAUAUUUCCUGGUU [A64U A71U] have self-cleavage greater than or equal to 0.6?
*A* N

*Q* Quick check: does GUCCUCUUUCACGUGCGCGUGUAAGAGAGAAGUGAACCAGAGAAACACACGCUGUGGUAUAUUACCUGGUA [A22U U52C] have self-cleavage greater than or equal to 0.6?
*A* Y

*Q* Quick check: does GUCCUCUUUCACGUGGGCGGGAAAGAGAGAAGUGAACCAGAGAAACACACGUUGUGGUAUAUUACCUGGUA [C16G U20G] have self-cleavage greater than or equal to 0.6?
*A* Y

*Q* Quick check: does GUCCUCUUUCACGUGCGCGUUAAAGAGAGAAGUGAACCCGAGAAACACACGUUGUGGUAUAUUACCUGGUA [G21U A39C] have self-cleavage greater than or equal to 0.6?
*A* N

*Q* Quick check: does GUCCUCUUUCACGUGCGCGUGAAAGAGAGAAGUGAACCAGAGAAACACACGUUAUGGUAUAUUUCCUGGUA [G54A A64U] have self-cleavage greater than or equal to 0.6?
*A* N

*Q* Quick check: does GUCCUCUUUCACGUCCGCGUGAAAGAGAGAAGUGAACGAGAGAAACACACGUUGUGGUAUAUUACCUGGUA [G15C C38G] have self-cleavage greater than or equal to 0.6?
*A* N
